- experimental system: Dual specificity tyrosine-phosphorylation-regulated kinase 2 (Homo sapiens)
- Sequence (whole entry): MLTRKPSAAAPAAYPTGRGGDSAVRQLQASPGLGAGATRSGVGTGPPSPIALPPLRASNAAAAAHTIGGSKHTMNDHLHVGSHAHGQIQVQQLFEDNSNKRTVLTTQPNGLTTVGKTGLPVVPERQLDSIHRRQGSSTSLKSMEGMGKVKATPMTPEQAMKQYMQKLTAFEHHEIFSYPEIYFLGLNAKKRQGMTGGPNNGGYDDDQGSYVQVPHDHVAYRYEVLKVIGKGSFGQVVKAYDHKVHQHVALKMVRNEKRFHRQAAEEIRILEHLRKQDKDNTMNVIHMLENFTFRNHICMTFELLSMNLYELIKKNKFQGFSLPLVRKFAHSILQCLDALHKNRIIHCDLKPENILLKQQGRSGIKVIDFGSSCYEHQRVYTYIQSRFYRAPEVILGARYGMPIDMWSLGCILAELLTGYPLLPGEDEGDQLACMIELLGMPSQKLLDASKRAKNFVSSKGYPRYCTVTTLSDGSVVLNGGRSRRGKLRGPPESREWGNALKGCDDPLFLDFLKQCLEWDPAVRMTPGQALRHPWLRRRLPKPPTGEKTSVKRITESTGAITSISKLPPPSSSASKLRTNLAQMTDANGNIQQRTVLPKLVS
- reported conditions: at 10 µM

{"columns": ["smiles", "unit string", "residual activity"],
 "data": [
  ["COc1ccc(OC)c2c(=S)c3ccccc3[nH]c12", "%", 66],
  ["Cc1nc2cc3nc(-c4cccs4)cnc3cc2n1C", "%", 87],
  ["Cn1nc2c3c(cccc31)C(=O)c1ccccc1-2", "%", 75],
  ["Nc1n[nH]c2nnc(-c3c(-c4ccccc4)nn4ccccc34)cc12", "%", 88],
  ["O=C1NC(=O)c2cc(Nc3ccc(F)cc3)c(Nc3ccc(F)cc3)cc21", "%", 101],
  ["c1ccc2c(-c3ccncc3)c[nH]c2c1", "%", 21],
  ["NC(=O)c1ccc2[nH]c(-c3ccc(Oc4ccc(Cl)cc4)cc3)nc2c1", "%", 53],
  ["COc1cc2ncnc(Nc3ccc(Oc4ccccc4)cc3)c2cc1OC", "%", 95],
  ["COc1cc2ncnc(N3CCN(C(=O)Nc4ccc(Oc5ccccc5)cc4)CC3)c2cc1OC", "%", 98],
  ["c1ccc(-c2n[nH]c3c2oc2ccccc23)cc1", "%", 71],
  ["CC(=O)c1ccc(N2CCOCC2)cc1O", "%", 92],
  ["O=C1Nc2ccc(Br)cc2/C1=C\\c1cc2c([nH]1)CCCC2", "%", 99],
  ["O=[N+]([O-])c1ccc(-c2nc(-c3ccc(F)cc3)c(-c3ccncc3)[nH]2)cc1", "%", 91],
  ["Cn1cc(/C=C2\\C(=O)Nc3ccc(S(N)(=O)=O)cc32)c2ccccc21", "%", 99],
  ["CNc1cc2c(Nc3cccc(Br)c3)ncnc2cn1", "%", 86],
  ["C[C@@H](N)[C@H]1CC[C@H](C(=O)Nc2ccncc2)CC1", "%", 91],
  ["COc1cc2ncnc(Nc3ccc(O)c(Br)c3)c2cc1OC", "%", 10],
  ["Oc1n[nH]c2nnc(-c3c(-c4ccccc4)nn4ccccc34)cc12", "%", 95],
  ["COc1cc2ncnc(Nc3ccc(NC(=O)c4ccccc4)cc3)c2cc1OC", "%", 98],
  ["O=C1c2ccccc2-[n+]2ccc3c([nH]c4ccccc43)c21", "%", 92],
  ["Nc1ccc2ncnc(NCCc3ccc(Oc4ccccc4)cc3)c2c1", "%", 92],
  ["CN(C)c1ccc(/C=C2\\C(=O)Nc3ccccc32)cc1", "%", 98],
  ["Cc1cc2ncc(-c3ccccc3)nc2cc1C", "%", 105],
  ["Cn1cnc2cc3c(Nc4cccc(Br)c4)ncnc3cc21", "%", 79]
]}
